This section presents compounds with their documented pIC50 values.
Biological target: IDO1 (Homo sapiens, UniProt P14902)
Sequence (P14902 whole entry): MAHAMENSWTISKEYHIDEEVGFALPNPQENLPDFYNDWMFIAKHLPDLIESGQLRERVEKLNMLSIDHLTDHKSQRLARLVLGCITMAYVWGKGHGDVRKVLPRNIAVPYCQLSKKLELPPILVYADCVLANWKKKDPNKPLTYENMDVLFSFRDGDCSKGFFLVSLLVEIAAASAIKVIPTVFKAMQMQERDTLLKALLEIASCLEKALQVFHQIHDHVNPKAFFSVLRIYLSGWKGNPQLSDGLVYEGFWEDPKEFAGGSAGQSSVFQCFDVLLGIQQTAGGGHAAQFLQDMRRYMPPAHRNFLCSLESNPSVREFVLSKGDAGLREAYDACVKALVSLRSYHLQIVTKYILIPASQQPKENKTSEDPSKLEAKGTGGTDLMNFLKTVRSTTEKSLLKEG
Test: IDO1 Cellular Assay in HeLa Cells Stimulated with IFNγ
Assay type: cell-based
Conditions: read-out: HeLa Cell Potency, IC50
Method: IDO1 Cellular Assay in HeLa Cells Stimulated with IFNγ HeLa cells were cultured in complete HeLa culture medium (90% EMEM, 10% heat-inactivated fetal bovine serum) and expanded to about 1×10^9 cells. […] Frozen HeLa cells were thawed and transferred into HeLa assay medium (99% complete HeLa culture medium, 1% Pen/Strep) with 20 mL medium/vial of cells. […] The cells were then counted and adjusted to a density of 2×10^5 cells/mL in HeLa assay medium. […]
pIC50: −log10 of the molar value.

[
  {
    "COMPOUND": "Cc1cccc(N2CCN(C(=O)Cn3nc(C(=O)N4CCC5(CC4)COCC5O)c4c3CCC4)CC2)c1C (stereo not shown) [Example 181]",
    "pIC50": 8.48
  },
  {
    "COMPOUND": "Cc1cccc(N2CCN(C(=O)Cn3nc(C(=O)N4CCC(O)(CF)CC4)c4c3CCC4)CC2)c1C",
    "pIC50": 7.98
  },
  {
    "COMPOUND": "Cc1cccc(N2CCN(C(=O)Cn3nc(C(=O)N4CCC(NS(N)(=O)=O)CC4)c4c3C[C@H]3C[C@@H]43)CC2)c1C",
    "pIC50": 8.21
  },
  {
    "COMPOUND": "CC(=O)NC1CCCN(C(=O)c2nn(CC(=O)N3CCN(c4cccc(C)c4C)CC3)c3c2CCC3)C1 (stereo not shown)",
    "pIC50": 6.92
  }
]

----------
Molecular target: IDO1 (Homo sapiens)
Test: IDO1 Cellular Assay in HeLa Cells Stimulated with IFNγ
Assay type: cell-based
Settings: read-out: HeLa Cell Potency, IC50
pIC50: −log10 of the molar value.
This section presents molecules with their documented pIC50 values.

[
  {
    "MOLECULE": "Cc1cccc(N2CCN(C(=O)Cn3nc(C(=O)N4CCC(NC(=O)CCO)CC4)c4c3CCCC4)CC2)c1C",
    "pIC50": 8.15
  },
  {
    "MOLECULE": "Cc1cccc(N2CCN(C(=O)Cn3nc(C(=O)N4C[C@@H](C)O[C@@H](C)C4)c4c3C3CC3C4)CC2)c1C (stereo partly shown) [Example 449]",
    "pIC50": 8.10
  },
  {
    "MOLECULE": "Cc1cc(N2CCN(C(=O)Cn3nc(C(=O)N4C[C@@H](C)O[C@@H](C)C4)c4c3CCC4)CC2)ccc1F",
    "pIC50": 7.11
  },
  {
    "MOLECULE": "CNC(=O)NC1CCN(C(=O)c2nn(CC(=O)N3CCN(c4cccc(C)c4C)CC3)c3c2[C@@H]2C[C@@H]2C3)CC1",
    "pIC50": 8.68
  },
  {
    "MOLECULE": "C[C@@H]1CN(C(=O)c2nn(CC(=O)N3CCN(c4cccc(F)c4Cl)CC3)c3c2CCC3)C[C@H](C)O1",
    "pIC50": 6.93
  },
  {
    "MOLECULE": "Cc1ccc(N2CCN(C(=O)Cn3nc(C(=O)N4C[C@@H](C)O[C@@H](C)C4)c4c3CCC4)CC2)c(F)c1",
    "pIC50": 6.90
  },
  {
    "MOLECULE": "Cc1c(Cl)cccc1N1CCN(C(=O)Cn2nc(C(=O)N3CC[C@H](O)[C@@H](F)C3)c3c2CCCC3)CC1",
    "pIC50": 8.97
  }
]

Origin of the recorded values: patent US12264134B2
